biological target: C-terminal domain of human centrin 1 (M93-Y172) (human, UniProt Q12798 93-172); assay: ITC
Sequence (Q12798 93-172): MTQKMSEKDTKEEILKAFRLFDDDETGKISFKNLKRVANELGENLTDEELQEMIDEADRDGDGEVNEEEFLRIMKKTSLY
Parameter Ka: see the listing below.
experimental_endpoint: Ka

- binder: "Ac-SQHNRQLLRGALRRWK-NH2 [HsSfiR18, repeat 18 peptide of human Sfi1 (677-692)]"
  experimental_endpoint: "Ka"
  endpoint_value: "3.56e+06 M⁻¹"
- binder: "Ac-TVWAQLARHLVSHQHHLDAR-NH2 [HsSfi1R17inv, repeat 17 peptide of human Sfi1 in reversed sequence orientation]"
  experimental_endpoint: "Ka"
  endpoint_value: "690000 M⁻¹"
- binder: "Ac-RADLHHQHSVLHRALQAWVT-NH2 [HsSfiR17, repeat 17 peptide of human Sfi1 (641-660)]"
  experimental_endpoint: "Ka"
  endpoint_value: "120000 M⁻¹"
- binder: "Ac-NWKLLAKGLLIRERLKR-NH2 [P17-XPC, 17-residue peptide of human XPC]"
  experimental_endpoint: "Ka"
  endpoint_value: "8.25e+06 M⁻¹"
